Experiment: chemical genetic growth profiling, strain panel (AID 1159580);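 also: tested at 20 µM; growth read once vehicle control cultures reached saturation at 30 °C; 1 = growth at the plate median or of vehicle wells; lower values mean less growth of the strain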
Conditions: S. cerevisiae deletion strains, growth OD, locus YJL115W, strain asf1, hits give low values
Among all 5,500 compounds or so, about 2,000 (36%) were called active. Another 18% or so got no clear call; they are omitted. Some of the results follow. Where a SMILES comes first, the peptide text is derived from it.

| compound | normalized growth |
| --- | --- |
| CCC1OC(=O)[C@H](C)C(=O)[C@H](C)[C@@H](OC2O[C@H](C)C[C@H](N(C)C)[C@H]2O)[C@](C)(OC)C2(CCCn3cnc(-c4cccnc4)c3)C[C@@H](C)C(=O)[C@H](C)[C@H]3N(C2)C(=O)O[C@]13C (stereo not given in full) | 0.973 |
| CC(C)c1c(O)ccc2c1CCC1C(C)(C)CCC[C@]21C (stereo not given in full) | 1.02 |
| C[C@]12C=CC(=O)C=C1CCC1C2[C@@H](O)C[C@@]2(C)C1CC[C@]2(O)C(=O)COP(=O)(O)O (stereo not given in full) | 0.995 |
| N#Cc1nn(-c2c(Cl)cc(C(F)(F)F)cc2Cl)c(N)c1S(=O)C(F)(F)F (stereo not given) | 0.99 |
| COC(=O)[C@H](Cc1ccccc1)NC(=O)[C@@H](N)CC(=O)O (H-Asp-Phe-OMe) | 1.02 |

====

Experiment: chemical genetic growth profiling, strain panel (AID 1159580);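 also: tested at 20 µM; growth read once vehicle control cultures reached saturation at 30 °C; 1 = growth at the plate median or of vehicle wells; lower values mean less growth of the strain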
Conditions: S. cerevisiae deletion strains, growth OD, locus YLR384C, strain iki3, hits give low values
Among all 5,500 compounds or so, about 2,000 (36%) were called active. About 18% were inconclusive and are not listed. This is one part of the list.
normalized growth values, listed per item

| compound | normalized growth |
| --- | --- |
| CC(C)(C)NCC(O)c1cc(Cl)c(N)c(Cl)c1 (centres undefined) | 1 |
| COc1cc(OC)c2ccc(=O)oc2c1 | 0.975 |
| COc1ccc2c(c1)CCC1C2CC[C@@]2(C)C1CC[C@@H]2O (some centres undefined) | 1.02 |
| O=c1ccc2cc(OC3OC(CO)C(O)C(O)C3O)c(O)cc2o1 (centres undefined) | 1.01 |
| C=C(C)[C@H]1COc2cc3oc(=O)ccc3cc2O1 | 0.993 |
| COc1ccc2ccc(=O)oc2c1 | 0.995 |
| O=c1ccc2c(O)c3ccoc3cc2o1 | 0.992 |
| CN[C@@H]1C(O)[C@@H](O[C@@H]2[C@@H](O)[C@H](O[C@H]3OC(CN)=CC[C@H]3N)[C@@H](N)C[C@H]2N)OC[C@]1(C)O (some centres undefined) | 1.01 |
| COc1ccc2c(c1)CCC1C2CCC2(C)C1C[C@@H](O)C2O (some centres undefined) | 1.01 |

====

normalized growth values, listed per item
Assay: chemical genetic growth profiling, strain panel (AID 1159580);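 also: tested at 20 µM; growth read once vehicle control cultures reached saturation at 30 °C; 1 = growth at the plate median or of vehicle wells; lower values mean less growth of the strain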
Settings: S. cerevisiae deletion strains, growth OD, locus YER016W, strain bim1, hits give low values
Screen size: about 5,500 compounds; about 2,000 (36%) were called active. Not shown: some 18% with an inconclusive outcome. The list shows a part of the results.
measurement name: normalized growth

| compound | measurement name | measurement |
| --- | --- | --- |
| COC(=O)[C@]1(C)CCC[C@]2(C)c3ccc(C(C)C)cc3C(=O)CC12 (stereo partly drawn) | normalized growth | 0.958 |
| O=C(O)C1=C[C@@H](O)[C@@H](O)[C@H](O)C1 | normalized growth | 0.977 |
| CC(C)c1c(O)ccc2c1CCC1C(C)(C)CCC[C@]21C (stereo partly drawn) | normalized growth | 0.302 |
